# systemName: CLK2 kinase (Homo sapiens, UniProt P49760)
# Sequence (P49760 whole entry): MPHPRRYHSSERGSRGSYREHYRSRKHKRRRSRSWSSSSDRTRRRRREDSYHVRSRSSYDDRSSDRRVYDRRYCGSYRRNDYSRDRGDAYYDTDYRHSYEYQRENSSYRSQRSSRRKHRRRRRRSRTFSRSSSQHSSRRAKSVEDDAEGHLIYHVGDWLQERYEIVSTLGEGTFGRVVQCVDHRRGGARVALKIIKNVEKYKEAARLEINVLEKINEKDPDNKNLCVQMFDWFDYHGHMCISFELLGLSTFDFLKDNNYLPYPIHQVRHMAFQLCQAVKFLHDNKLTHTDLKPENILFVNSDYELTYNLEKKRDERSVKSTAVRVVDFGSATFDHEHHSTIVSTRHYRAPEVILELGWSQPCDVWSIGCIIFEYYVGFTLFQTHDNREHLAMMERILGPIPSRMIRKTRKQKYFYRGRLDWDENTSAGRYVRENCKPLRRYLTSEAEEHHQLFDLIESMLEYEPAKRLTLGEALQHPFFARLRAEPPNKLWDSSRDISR
# assayMethodText: CLK2 kinase activity assay (Z-lyte FRET);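 note: FRET read-out as coumarin to fluorescein emission ratio, unphosphorylated peptide as 0% and phosphorylated peptide as 100% controls, duplicate reactions, non-linear regression fit of dose-response curves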
# protocolConditions: Z-lyte Ser/Thr 6 peptide, 60 μM ATP, 1 h at room temperature
The following compounds are listed with their measured EC50 values.
Reply numerically in nM, unit not repeated.

Reference set (5 entries):
| smi | systemName | EC50 (nM) |
| --- | --- | --- |
| O=C(Nc1cc2cc(-c3cncs3)ccc2cn1)C1(F)CCCCC1 | CLK2 kinase (Homo sapiens, UniProt P49760) | 1900 |
| Cn1cc(-c2ccc3cnc(NC(=O)c4ccc5nccnc5c4)cc3n2)cn1 | CLK2 kinase (Homo sapiens, UniProt P49760) | 8 |
| O=C(Nc1cccnc1)c1n[nH]c2ccc(-c3cncc(CN4CC5CC(C4)O5)c3)cc12 | CLK2 kinase (Homo sapiens, UniProt P49760) | 1 |
| O=C(Nc1cncc(-c2ccc3[nH]nc(-c4nc5c(N6CCCCC6)cncc5[nH]4)c3c2)c1)C1CCC1 | CLK2 kinase (Homo sapiens, UniProt P49760) | 7 |
| CN(C)c1cncc(-c2cnc3[nH]nc(-c4cc5c(-c6ccncc6)cncc5[nH]4)c3c2)c1 | CLK2 kinase (Homo sapiens, UniProt P49760) | 3 |

Report EC50 for "CC(C)C(=O)Nc1cncc(-c2cc3c(-c4cc5cnccc5[nH]4)n[nH]c3cn2)c1" please.
1

Report EC50 for "Cn1cc(-c2cc3c(C(=O)Nc4ccc(CN5CCCC5)cc4)n[nH]c3cc2F)cn1" please.
1

Report EC50 for "Cc1cn(-c2ccnc3[nH]c(-c4n[nH]c5ccc(-c6cncc(NC(=O)C(C)(C)C)c6)nc45)nc23)cn1" please.
3

###

The following molecules are listed with their measured EC50 values.
# systemName: UniProt:P49761
# Sequence (P49761 whole entry): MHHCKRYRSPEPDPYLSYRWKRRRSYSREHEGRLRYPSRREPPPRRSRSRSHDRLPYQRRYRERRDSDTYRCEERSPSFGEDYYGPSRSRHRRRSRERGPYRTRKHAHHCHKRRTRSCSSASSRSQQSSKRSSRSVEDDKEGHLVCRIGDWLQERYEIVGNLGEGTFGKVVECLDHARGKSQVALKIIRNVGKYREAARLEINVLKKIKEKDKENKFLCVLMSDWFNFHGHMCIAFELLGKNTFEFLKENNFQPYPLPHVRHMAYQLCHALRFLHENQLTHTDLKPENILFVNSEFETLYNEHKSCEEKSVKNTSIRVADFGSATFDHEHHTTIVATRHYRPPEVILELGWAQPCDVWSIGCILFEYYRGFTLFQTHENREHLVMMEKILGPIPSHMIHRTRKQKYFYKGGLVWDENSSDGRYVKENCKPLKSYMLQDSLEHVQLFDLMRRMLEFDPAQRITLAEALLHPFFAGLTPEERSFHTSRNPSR
# assayMethodText: CLK3 kinase activity assay (Z-lyte FRET);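 note: kinase activity read as coumarin/fluorescein emission ratio by FRET, unphosphorylated peptide as 0% and phosphorylated peptide as 100% control, values from non-linear regression of dose-response curves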
# protocolConditions: Z-lyte Ser/Thr 18 peptide, 156 μM ATP, 1 h at room temperature

Reference set (3 entries):
| smi | experimentalResult |
| --- | --- |
| CN1CCN(c2nccc3[nH]c(-c4n[nH]c5cnc(-c6cncc(NC(=O)C(C)(C)C)c6)cc45)cc23)CC1 | 137 nM |
| CCC(=O)Nc1cncc(-c2ccc3[nH]nc(-c4cc5c(-c6cccc(F)c6)ccnc5[nH]4)c3c2)c1 | 21 nM |
| Cn1cc(-c2cc3c(C(=O)Nc4ccc(CN5CCCC5)cc4)n[nH]c3cc2F)cn1 | 90 nM |

Report EC50 for "O=C(Nc1cncc(-c2cnc3[nH]nc(-c4cc5c(-c6ccccc6F)nccc5[nH]4)c3c2)c1)C1CC1" please.
47 nM

Report EC50 for "CN1CCN(c2nccc3[nH]c(-c4n[nH]c5cnc(-c6cncc(NC(=O)c7ccccc7)c6)cc45)cc23)CC1" please.
302 nM

Report EC50 for "CC(C)(C)C(=O)Nc1cncc(-c2ccc3[nH]nc(-c4nc5c(-c6ccc(F)s6)ccnc5[nH]4)c3c2)c1" please.
754 nM

Report EC50 for "Fc1cccc(-c2nccc3[nH]c(-c4n[nH]c5ccc(-c6cncc(CN7CCCCC7)c6)nc45)cc23)c1" please.
252 nM

Report EC50 for "CC(C)(C)CC(=O)Nc1cncc(-c2ccc3[nH]nc(-c4cc5c(-c6ccoc6)ccnc5[nH]4)c3c2)c1" please.
117 nM

Report EC50 for "O=C(Nc1cncc(-c2ccc3[nH]nc(-c4cc5cnccc5[nH]4)c3c2)c1)C1CCCCC1" please.
18 nM

Report EC50 for "CN1CCN(c2ccnc3[nH]c(-c4n[nH]c5ccc(-c6cncc(NC(=O)c7ccccc7)c6)nc45)cc23)CC1" please.
2530 nM

Report EC50 for "O=C(Nc1cncc(-c2ccc3[nH]nc(-c4nc5ccncc5[nH]4)c3c2)c1)C1CC1" please.
206 nM
